This listing pairs molecules with measured λmax (absorbance).
assay: Spectroscopic absorbance properties; type: physicochemical; conditions: Water/Cremophor (100:1), room temperature
readout kind: λmax (absorbance) (nm)

F[B-]1(F)n2c(-c3ccccc3)cc(-c3ccc(Br)cc3)c2N=C2C(c3ccc(Br)cc3)=CC(c3ccccc3)=[N+]21 [Compound 5a]    667
COc1ccc(C2=[N+]3C(=Nc4c(-c5ccccc5)cc(-c5ccc(OC)cc5)n4[B-]3(F)F)C(c3ccccc3)=C2)cc1 [Compound 2b]    696
F[B-]1(F)n2c(c(-c3ccccc3)c(Br)c2-c2ccccc2)N=C2C(c3ccccc3)=C(Br)C(c3ccccc3)=[N+]21 [Compound 4a]    651
F[B-]1(F)n2c(-c3ccccc3)cc(-c3ccccc3)c2N=C2C(c3ccccc3)=CC(c3ccccc3)=[N+]21 [Compound 2a]    658
COc1ccc(C2=[N+]3C(=Nc4c(-c5ccccc5)c(Br)c(-c5ccc(OC)cc5)n4[B-]3(F)F)C(c3ccccc3)=C2Br)cc1 [Compound 4b]    685

----------
experiment: Spectroscopic absorbance properties; format: physicochemical; conditions: CHCl3, room temperature
readout kind: ε (molar extinction coefficient)

F[B-]1(F)n2c(c(-c3ccccc3)c(Br)c2-c2ccccc2)N=C2C(c3ccccc3)=C(Br)C(c3ccccc3)=[N+]21    79,000 M^−1cm^−1
F[B-]1(F)n2c(-c3ccccc3)cc(-c3ccc(Br)cc3)c2N=C2C(c3ccc(Br)cc3)=CC(c3ccccc3)=[N+]21    74,000 M^−1cm^−1
COc1ccc(C2=[N+]3C(=Nc4c(-c5ccccc5)c(Br)c(-c5ccc(OC)cc5)n4[B-]3(F)F)C(c3ccccc3)=C2Br)cc1    75,000 M^−1cm^−1
COc1ccc(C2=[N+]3C(=Nc4c(-c5ccccc5)cc(-c5ccc(OC)cc5)n4[B-]3(F)F)C(c3ccccc3)=C2)cc1    85,000 M^−1cm^−1
F[B-]1(F)n2c(-c3ccccc3)cc(-c3ccccc3)c2N=C2C(c3ccccc3)=CC(c3ccccc3)=[N+]21    79,000 M^−1cm^−1

----------
assay: Spectroscopic absorbance properties; format: physicochemical; details: CHCl3, room temperature
# λmax (absorbance) per record follows
readout kind: λmax (absorbance)

COc1ccc(C2=[N+]3C(=Nc4c(-c5ccccc5)c(Br)c(-c5ccc(OC)cc5)n4[B-]3(F)F)C(c3ccccc3)=C2Br)cc1 [Compound 4b]    679 nm
F[B-]1(F)n2c(-c3ccccc3)cc(-c3ccc(Br)cc3)c2N=C2C(c3ccc(Br)cc3)=CC(c3ccccc3)=[N+]21 [Compound 5a]    658 nm
COc1ccc(C2=[N+]3C(=Nc4c(-c5ccccc5)cc(-c5ccc(OC)cc5)n4[B-]3(F)F)C(c3ccccc3)=C2)cc1 [Compound 2b]    688 nm
F[B-]1(F)n2c(-c3ccccc3)cc(-c3ccccc3)c2N=C2C(c3ccccc3)=CC(c3ccccc3)=[N+]21 [Compound 2a]    650 nm
F[B-]1(F)n2c(c(-c3ccccc3)c(Br)c2-c2ccccc2)N=C2C(c3ccccc3)=C(Br)C(c3ccccc3)=[N+]21 [Compound 4a]    650 nm

----------
test: Spectroscopic absorbance properties; type: physicochemical; settings: CHCl3, room temperature
Measured fwhm (full width at half maximum), listed per entry.
readout kind: fwhm (full width at half maximum) (nm)

COc1ccc(C2=[N+]3C(=Nc4c(-c5ccccc5)c(Br)c(-c5ccc(OC)cc5)n4[B-]3(F)F)C(c3ccccc3)=C2Br)cc1    57
COc1ccc(C2=[N+]3C(=Nc4c(-c5ccccc5)cc(-c5ccc(OC)cc5)n4[B-]3(F)F)C(c3ccccc3)=C2)cc1    55
F[B-]1(F)n2c(c(-c3ccccc3)c(Br)c2-c2ccccc2)N=C2C(c3ccccc3)=C(Br)C(c3ccccc3)=[N+]21    47
F[B-]1(F)n2c(-c3ccccc3)cc(-c3ccccc3)c2N=C2C(c3ccccc3)=CC(c3ccccc3)=[N+]21    49
